As shown below, each of these compounds has a reported Tox (pCC50) value.
- Test system: mock-infected MT4 cells
- PROTOCOL SUMMARY: in vitro
OUTCOME MEASURE: Tox (pCC50)

>>> observed_result("CC(C)CN(C[C@@H](O)[C@H](Cc1ccccc1)NC(=O)OCc1cncs1)S(=O)(=O)c1ccc2nc(N(C)C(=O)c3ccccn3)oc2c1")
4.14
>>> observed_result("CC(C)CN(C[C@@H](O)[C@H](Cc1ccccc1)NC(=O)OCc1cncs1)S(=O)(=O)c1ccc2nc(NC(=O)CN3CCN(C)CC3)oc2c1")
4.31
>>> observed_result("CC(C)CN(C[C@@H](O)[C@H](Cc1ccccc1)NC(=O)OCc1cncs1)S(=O)(=O)c1ccc2nc(NC(=O)c3ccccn3)oc2c1")
4.25

====

- System: mock-infected MT4 cells
- PROTOCOL SUMMARY: in vitro
OUTCOME MEASURE: Tox (pCC50)

>>> observed_result("CC(C)CN(C[C@@H](O)[C@H](Cc1ccccc1)NC(=O)OCc1cncs1)S(=O)(=O)c1ccc2nc(N(C)C(=O)C3CCN(C)CC3)oc2c1")
"<4"
>>> observed_result("CC(C)CN(C[C@@H](O)[C@H](Cc1ccccc1)NC(=O)OCc1cncs1)S(=O)(=O)c1ccc2nc(N(C)C(=O)c3ccnc(Cl)c3)oc2c1")
"<4"
>>> observed_result("CC(C)CN(C[C@@H](O)[C@H](Cc1ccccc1)NC(=O)OCc1cncs1)S(=O)(=O)c1ccc2nc(NC(=O)C3CCCN3C)oc2c1 (stereo partly drawn)")
4.25

====

- Test system: HIV strain E (clinically isolated, protease mutations)
- Assay type: cell-based
- PARTICULARS: FR=EC50(mutant strain E)/EC50(HIV-1 strain LAI)
Kindly return Y if reported E (FR) fold resistance is no lower than 3; return N if it is lower.

>>> classification("CC(C)CN(C[C@@H](O)[C@H](Cc1ccccc1)NC(=O)OCc1cncs1)S(=O)(=O)c1ccc2nc(NC(=O)c3cccnc3)oc2c1 [Compound 18]")
"N"
>>> classification("CC(C)CN(C[C@@H](O)[C@H](Cc1ccccc1)NC(=O)OCc1cncs1)S(=O)(=O)c1ccc2nc(N(C)C(=O)C3CCN(C)CC3)oc2c1 [Compound 28]")
"N"
>>> classification("CC(C)CN(C[C@@H](O)[C@H](Cc1ccccc1)NC(=O)OCc1cncs1)S(=O)(=O)c1ccc2nc(N(C)C(=O)c3ccccn3)oc2c1 [Compound 26]")
"Y"
>>> classification("CC(C)CN(C[C@@H](O)[C@H](Cc1ccccc1)NC(=O)OCc1cncs1)S(=O)(=O)c1ccc2nc(NC(=O)CN3CCN(C)CC3)oc2c1 [Compound 25]")
"Y"
>>> classification("CC(C)CN(C[C@@H](O)[C@H](Cc1ccccc1)NC(=O)OCc1cncs1)S(=O)(=O)c1ccc2nc(NC(=O)c3ccco3)oc2c1 [Compound 14]")
"Y"
>>> classification("CCOC(=O)Nc1nc2ccc(S(=O)(=O)N(CC(C)C)C[C@@H](O)[C@H](Cc3ccccc3)NC(=O)OCc3cncs3)cc2o1 [Compound 12]")
"N"
>>> classification("CC(C)CN(C[C@@H](O)[C@H](Cc1ccccc1)NC(=O)OCc1cncs1)S(=O)(=O)c1ccc2nc(N(C)C(=O)c3ccnc(Cl)c3)oc2c1 [Compound 29]")
"N"

====

- Test system: HIV strain E (clinically isolated, protease mutations)
- Type: cell-based
- PARTICULARS: FR=EC50(mutant strain E)/EC50(HIV-1 strain LAI)
Measured E (FR) fold resistance values are reported for all entries that follow.
OUTCOME MEASURE: E (FR) fold resistance

>>> observed_result("CC(C)CN(C[C@@H](O)[C@H](Cc1ccccc1)NC(=O)OCc1cncs1)S(=O)(=O)c1ccc2nc(NC(=O)C3CCC(=O)N3)oc2c1 (stereo partly drawn)")
0.91
>>> observed_result("CC(C)CN(C[C@@H](O)[C@H](Cc1ccccc1)NC(=O)O[C@H]1CO[C@H]2OCC[C@H]21)S(=O)(=O)c1ccc2nc(NCCN3CCCC3)oc2c1")
0.50
>>> observed_result("CC(C)CN(C[C@@H](O)[C@H](Cc1ccccc1)NC(=O)OCc1cncs1)S(=O)(=O)c1ccc2nc(N(C)C(=O)C3CCCN(C)C3)oc2c1 (stereo partly drawn)")
0.85
>>> observed_result("COC(=O)Nc1nc2ccc(S(=O)(=O)N(CC(C)C)C[C@@H](O)[C@H](Cc3ccccc3)NC(=O)OCc3cncs3)cc2o1")
3.6
>>> observed_result("CC(C)CN(C[C@@H](O)[C@H](Cc1ccccc1)NC(=O)OCc1cncs1)S(=O)(=O)c1ccc2nc(NC(=O)c3ccncc3)oc2c1")
1.3
>>> observed_result("CC(C)CN(C[C@@H](O)[C@H](Cc1ccccc1)NC(=O)OCc1cncs1)S(=O)(=O)c1ccc2nc(NC(=O)CN(C)CCN3CCCC3)oc2c1")
1.4

====

- PROTOCOL SUMMARY: in vitro
- PARTICULARS: human
- Experimental: HIV- or mock-infected MT4 cells were incubated for five days in the presence of various concentrations of the inhibitor. […] Cell viability is measured by measuring the concentration of MTT, a yellow, water soluble tetrazolium dye that is converted to a purple, water insoluble formazan in the mitochondria of living cells only. Upon solubilization of the resulting formazan crystals with isopropanol, the absorbance of the solution is monitored at 540 nm. […]
OUTCOME MEASURE: CC50 at 5 days (µM)

>>> observed_result("CC(C)CN(C[C@@H](O)[C@H](Cc1ccccc1)NC(=O)OCc1cncs1)S(=O)(=O)c1ccc2nc(NC(=O)c3ccncc3)oc2c1")
53.7

====

- Test system: HIV strain A (clinically isolated, protease mutations)
- Type: cell-based
- PARTICULARS: FR=EC50(mutant strain A)/EC50(HIV-1 strain LAI)
Below, each entry is listed with its recorded A (FR) fold resistance.
OUTCOME MEASURE: A (FR) fold resistance

>>> observed_result("CC(C)CN(C[C@@H](O)[C@H](Cc1ccccc1)NC(=O)OCc1cncs1)S(=O)(=O)c1ccc2nc(NC(=O)CN(C)CCN3CCCC3)oc2c1")
1.9
>>> observed_result("CC(C)CN(C[C@@H](O)[C@H](Cc1ccccc1)NC(=O)OCc1cncs1)S(=O)(=O)c1ccc2nc(NC(=O)C3CCN(C)CC3)oc2c1")
2.3
>>> observed_result("CC(C)CN(C[C@@H](O)[C@H](Cc1ccccc1)NC(=O)OCc1cncs1)S(=O)(=O)c1ccc2nc(N(C)C(=O)c3cccnc3)oc2c1")
8.3

====

- Tested on: HIV strain A (clinically isolated, protease mutations)
- Format: cell-based
- PARTICULARS: FR=EC50(mutant strain A)/EC50(HIV-1 strain LAI)
A (FR) fold resistance below 7 gives not fulfilled; A (FR) fold resistance at or above it gives fulfilled.

>>> classification("CC(C)CN(C[C@@H](O)[C@H](Cc1ccccc1)NC(=O)O[C@H]1CO[C@H]2OCC[C@H]21)S(=O)(=O)c1ccc2nc(N(C)CCN3CCCC3)oc2c1")
"fulfilled"
>>> classification("CC(C)CN(C[C@@H](O)[C@H](Cc1ccccc1)NC(=O)OCc1cncs1)S(=O)(=O)c1ccc2nc(NC(=O)c3ccccn3)oc2c1")
"not fulfilled"
>>> classification("CC(=O)Nc1nc2ccc(S(=O)(=O)N(CC(C)C)C[C@@H](O)[C@H](Cc3ccccc3)NC(=O)O[C@H]3CO[C@H]4OCC[C@H]43)cc2o1")
"not fulfilled"
>>> classification("CC(C)CN(C[C@@H](O)[C@H](Cc1ccccc1)NC(=O)O[C@H]1CO[C@H]2OCC[C@H]21)S(=O)(=O)c1ccc2nc(NCCN(C)C)oc2c1")
"not fulfilled"
>>> classification("CC(C)CN(C[C@@H](O)[C@H](Cc1ccccc1)NC(=O)OCc1cncs1)S(=O)(=O)c1ccc2nc(N(C)C(=O)c3ccncc3)oc2c1")
"fulfilled"
>>> classification("CC(C)CN(C[C@@H](O)[C@H](Cc1ccccc1)NC(=O)OCc1cncs1)S(=O)(=O)c1ccc2nc(N(C)C(=O)c3ccnc(Cl)c3)oc2c1")
"fulfilled"
>>> classification("CC(C)CN(C[C@@H](O)[C@H](Cc1ccccc1)NC(=O)OCc1cncs1)S(=O)(=O)c1ccc2nc(NC(=O)c3ccco3)oc2c1")
"not fulfilled"
>>> classification("CC(C)CN(C[C@@H](O)[C@H](Cc1ccccc1)NC(=O)OCc1cncs1)S(=O)(=O)c1ccc2nc(N(C)C(=O)C3CCCN(C)C3)oc2c1 (stereo partly drawn)")
"not fulfilled"
>>> classification("CCOC(=O)Nc1nc2ccc(S(=O)(=O)N(CC(C)C)C[C@@H](O)[C@H](Cc3ccccc3)NC(=O)OCc3cncs3)cc2o1")
"fulfilled"
>>> classification("CC(C)CN(C[C@@H](O)[C@H](Cc1ccccc1)NC(=O)OCc1cncs1)S(=O)(=O)c1ccc2nc(NC(=O)[C@H]3CCCN3C)oc2c1")
"fulfilled"
>>> classification("CC(C)CN(C[C@@H](O)[C@H](Cc1ccccc1)NC(=O)OCc1cncs1)S(=O)(=O)c1ccc2nc(NC(=O)c3ccncc3)oc2c1")
"not fulfilled"
